Assay: Cytotoxicity against MDCK cells assessed as decrease in cell viability after 72 hrs by MTS assay
Type: cell-based, Canis lupus familiaris
Conditions: dog
QUANTITY KIND: CC50 at 72 h (µM)
Answers are plain numbers, in µM.

Please give CC50 at 72 h for each item listed below.
1. FC(F)(F)c1ccccc1NCCN1CCCCCC1
2. CC(C)c1ccccc1OCCN1CCCCCC1
3. CC(C)c1ccccc1NCC12CC3CC(CC(C3)C1)C2
4. CCc1ccccc1OCCN1CCCCCC1
5. Fc1cc(F)cc(NCC23CC4CC(CC(C4)C2)C3)c1

Result block:
1: 11; 2: 26; 3: 3.4; 4: 11; 5: 1.9

Please give CC50 at 72 h for each item listed below.
1. CC(C)c1ccccc1NCCC12CC3CC(CC(C3)C1)C2
2. OC12CC3CC(C1)CC(CNc1ccccc1)(C3)C2
3. CCc1ccccc1NCCN1CCCCCC1

Result block:
1. 1.6
2. 23
3. 14

###

Assay: Inhibition of HeLa cell expressing Influenza A virus (A/Puerto Rico/8/34(H1N1)) hemagglutinin H1-mediated polykaryon formation preincubated for 15 mins followed by 5 mins of exposure to compound diluted in acidified PBS-CM of pH 5.2 and subsequent incubation with medium containing 10% fetal calf serum for 3 hrs by Giemsa staining-based inverted microscopy
Parameters: species or system Influenza A virus (A/Puerto Rico/8/1934(H1N1))
QUANTITY KIND: pEC50
Answers are plain numbers, as −log10 of the molar value.

COMPOUND SMILES	EXPERIMENTAL RESULT
CCc1ccccc1OCCN1CCCCCC1	5.02

Kindly review the next compound as well.
Query block: Quick one: pEC50 of CC(C)c1ccccc1NCCN1CCCCC1 ?
Result block: 5.00

###

Experiment: Cytotoxicity against MDCK cells assessed as effect on cell morphology after 72 hrs by microscopic method
Format: cell-based, Canis lupus familiaris
Conditions: dog
QUANTITY KIND: MCC at 72 h (µM)
One number for each entry, in µM.

Please give MCC at 72 h for each item listed below.
1. CC(C)c1ccccc1NCCN1CCCCCC1
2. OC12CC3CC(C1)CC(CNc1ccccc1)(C3)C2
3. CC(C)c1ccccc1NCCN1CCCCC1
4. CC(C)c1ccccc1NCCCN1CCCCC1
5. CC(C)c1ccccc1NCCC12CC3CC(CC(C3)C1)C2
6. FC(F)(F)c1ccccc1NCCN1CCCCCC1
7. CCc1ccccc1OCCN1CCCCCC1
8. FC(F)(F)c1ccccc1NCCN1CCCCC1

Result block:
100
20
100
60
4
20
20
100

###

Test: Antiviral activity against Influenza A virus (A/Virginia/ATCC3/2009(H1N1)) infected in MDCK cells assessed as inhibition of virus-induced cytopathicity after 72 hrs by MTS assay
Type: functional, cell-based, Influenza A virus (A/Virginia/03/2009(H1N1))
QUANTITY KIND: EC50

Below, 2 molecules whose answers are already recorded.
COMPOUND SMILES	EC50
NC12CC3CC(CC(C3)C1)C2	> 500000 nM
CCc1ccccc1OCCN1CCCCCC1	< 800 nM

Kindly review the next molecule as well.
Query block: Quick one: EC50 of CC(C)c1ccccc1NCCC12CC3CC(CC(C3)C1)C2 ?
Result block: < 800 nM

###

Experiment: Cytotoxicity against MDCK cells assessed as decrease in cell viability after 72 hrs by MTS assay
Assay type: cell-based, Canis lupus familiaris
Details: dog
QUANTITY KIND: CC50 at 72 h

Below, 2 molecules whose answers are already recorded.
COMPOUND SMILES	CC50 at 72 h
Brc1ccccc1NCCN1CCCCC1	> 100 µM
CCc1ccccc1NCC12CC3CC(CC(C3)C1)C2	0.87 µM

Please give CC50 at 72 h for each item listed below.
1. CC(C)c1ccccc1NCCN1CCCCCC1
2. CCc1ccccc1NCCN1CCCCC1
3. CC(C)c1ccccc1NCCN1CCCC1
4. FC(F)(F)c1ccccc1NCCN1CCCCC1
5. CC(C)c1ccccc1NCCCN1CCCCC1
6. CCc1ccccc1OCCN1CCCCC1

Result block:
["52 µM", "> 100 µM", "> 100 µM", "61 µM", "74 µM", "> 100 µM"]

###

Assay: Cytotoxicity against MDCK cells assessed as effect on cell morphology after 72 hrs by microscopic method
Type: cell-based, Canis lupus familiaris
Conditions: dog
Would you kindly list MCC at 72 h for each of these molecules?

Below, 6 molecules whose answers are already recorded.
MOLECULE	EXPERIMENTAL RESULT
CC(C)(C)c1ccccc1NCCN1CCCCC1	> 100 µM
Brc1ccccc1NCCN1CCCCC1	> 100 µM
COc1ccccc1NCCN1CCCCC1	> 100 µM
NC12CC3CC(CC(C3)C1)C2 [AMANTADINE]	> 500 µM
CC(C)c1ccccc1NCCN1CCCC1	> 100 µM
CC(C)c1ccccc1OCCN1CCCCC1	≥ 100 µM

Please give MCC at 72 h for each item listed below.
1. O=C(Nc1ccc(OCc2ccccc2)cc1)C12CC3CC(CC(C3)C1)C2
2. NC(=O)c1ncn([C@@H]2O[C@H](CO)[C@@H](O)[C@H]2O)n1 [RIBAVIRIN]

Result block:
["> 100 µM", "≥ 100 µM"]
